- Particulars: in DMAc, 308.15 K
Attribute measured: solubility (mole fraction)
Answer with the value's number alone.

Exercise: Look at this compound and give its reported solubility (mole fraction). C1=Cc2ccccc2Nc2ccccc21
Solution: 0.17

###

- Particulars: in isopropyl acetate, 303.15 K
Attribute measured: solubility (mole fraction)
Answer with the value's number alone.

Exercise: Look at this compound and give its reported solubility (mole fraction). C1=Cc2ccccc2Nc2ccccc21
Solution: 0.0168

###

- Particulars: in DMAc, 318.15 K
Attribute measured: solubility (mole fraction)
Answer with the value's number alone.

Exercise: Look at this molecule and give its reported solubility (mole fraction). C1=Cc2ccccc2Nc2ccccc21
Solution: 0.192
